molecular target: CFTR-mediated chloride transport in human intestinal epithelial enteroid cells (Homo sapiens, UniProt P13569); test: Membrane potential dye, Enteroid Assay A; assay type: cell-based; conditions: % of chloride transport of triple combination control (3 μM N-[(6-amino-2-pyridyl)sulfonyl]-6-(3-fluoro-5-isobutoxy-phenyl)-2-[(4S)-2,2,4-trimethylpyrrolidin-1-yl]pyridine-3-carboxamide, 3 μM tezacaftor, 300 nM acute ivacaftor)
Sequence (P13569 with tags, fused parts or gaps DEL508-508): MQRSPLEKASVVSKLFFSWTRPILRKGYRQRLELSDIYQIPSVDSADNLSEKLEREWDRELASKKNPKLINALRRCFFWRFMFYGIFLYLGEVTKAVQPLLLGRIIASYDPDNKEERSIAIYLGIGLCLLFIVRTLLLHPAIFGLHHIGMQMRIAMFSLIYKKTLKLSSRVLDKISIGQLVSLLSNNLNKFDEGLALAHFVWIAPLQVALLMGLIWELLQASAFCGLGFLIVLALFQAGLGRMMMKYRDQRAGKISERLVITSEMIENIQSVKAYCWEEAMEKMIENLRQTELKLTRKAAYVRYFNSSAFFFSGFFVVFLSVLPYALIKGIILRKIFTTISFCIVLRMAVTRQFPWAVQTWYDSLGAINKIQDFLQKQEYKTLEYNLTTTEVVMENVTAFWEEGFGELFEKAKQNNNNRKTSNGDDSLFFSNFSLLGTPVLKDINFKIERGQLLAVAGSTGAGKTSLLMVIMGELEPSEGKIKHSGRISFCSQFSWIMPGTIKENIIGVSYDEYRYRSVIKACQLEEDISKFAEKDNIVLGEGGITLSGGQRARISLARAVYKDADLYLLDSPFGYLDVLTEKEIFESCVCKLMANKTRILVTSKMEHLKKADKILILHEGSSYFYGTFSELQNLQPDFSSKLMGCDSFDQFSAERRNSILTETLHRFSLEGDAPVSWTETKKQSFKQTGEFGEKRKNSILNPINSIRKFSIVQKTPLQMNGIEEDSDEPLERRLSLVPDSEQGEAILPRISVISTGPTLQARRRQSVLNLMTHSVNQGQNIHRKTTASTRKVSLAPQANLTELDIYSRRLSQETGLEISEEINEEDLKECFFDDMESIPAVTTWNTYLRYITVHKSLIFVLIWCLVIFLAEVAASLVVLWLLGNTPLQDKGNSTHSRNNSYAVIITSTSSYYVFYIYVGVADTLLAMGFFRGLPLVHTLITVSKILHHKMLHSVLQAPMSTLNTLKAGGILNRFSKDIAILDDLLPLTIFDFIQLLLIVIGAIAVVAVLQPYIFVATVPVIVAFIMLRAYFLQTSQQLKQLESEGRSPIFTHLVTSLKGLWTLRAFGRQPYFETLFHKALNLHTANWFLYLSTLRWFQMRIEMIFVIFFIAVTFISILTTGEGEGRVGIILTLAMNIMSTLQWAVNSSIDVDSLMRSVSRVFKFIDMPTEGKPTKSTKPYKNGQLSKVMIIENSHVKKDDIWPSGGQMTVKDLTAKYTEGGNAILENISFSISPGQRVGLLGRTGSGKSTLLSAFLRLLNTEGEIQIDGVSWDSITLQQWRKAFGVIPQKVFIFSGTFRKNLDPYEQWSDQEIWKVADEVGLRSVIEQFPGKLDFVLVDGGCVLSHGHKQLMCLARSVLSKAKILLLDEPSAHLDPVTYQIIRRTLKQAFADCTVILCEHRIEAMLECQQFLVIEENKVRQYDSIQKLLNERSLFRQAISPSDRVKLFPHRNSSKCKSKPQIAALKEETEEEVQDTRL

- molecule: "Cc1cccc(C)c1-c1cc2nc(n1)NS(=O)(=O)c1cccc(c1)NC(=O)C1CC(O2)C(C)(C)N(Cc2ccccc2)C1 (single isomer, unassigned) [Compound 74]"
  Ent. A Max Activity (%): "+ (+ is <30%)"
- molecule: "Cc1cccc(C)c1-c1cc2nc(n1)NS(=O)(=O)c1cccc(c1)NC(=O)[C@@H]1CNC[C@@H](C1)O2 [Compound 50]"
  Ent. A Max Activity (%): "+ (+ is <30%)"
- molecule: "Cc1cccc(C)c1-c1cc2nc(n1)NS(=O)(=O)c1cccc(c1)COC1CC(CN(C(=O)OC(C)(C)C)C1)O2 (stereo not shown) [Compound 119]"
  Ent. A Max Activity (%): "+ (+ is <30%)"
